# Assay Method Text: changes in parasitized red cell lysis, either direction – P. falciparum Indochina, OD700, 3 h, PSAC antagonist project, primary screen (AID 1156)
# Test Settings: P. falciparum-infected erythrocytes, osmotic lysis, higher = more signal, called active from +8 up or from −8 down
Recorded measurements of z-score, one per entry
Give the figure by itself; no unit, no explanation.

Query: Entry CCCN1C(=O)[C@@]2(c3ccc([N+](=O)[O-])cc3)CC(=O)N(CC34CC5CC(CC(C5)C3)C4)[C@@H]2c2ccc(CO)cc21 has what z-score?
Response: 0.519

----------
# Assay Method Text: JC-1 mitochondrial signal, unstimulated MM1S myeloma – cell-based, JC-1 fluorescence, 24 h, 100 nL compound, profiling panel (AID 1170); note: test concentration not given here
# Test Settings: MM1S mitochondrial potential, higher = more signal
Catalogue of z-score values
Enter a number only.

>  <Molecule>
Cc1ccc(S[C@]2(C(=O)NC3CC3)CC(=O)N(C(C)C)[C@@H]2c2ccc(CO)cc2I)cc1

>  <Reported Measurement>
-2.21

$$$$
>  <Molecule>
CCOC(=O)C[C@H]1[C@H](OC(=O)c2cc3ccccc3oc2=O)[C@@H](NC(=O)CC(C)C)c2cc(OCCCO)ccc2N1C(=O)Cc1ccc(OC)cc1

>  <Reported Measurement>
0.328

$$$$
>  <Molecule>
Cc1ccc(S[C@]2(C(=O)NCc3ccccc3)CC(=O)N(Cc3ccccc3C(F)(F)F)[C@@H]2c2ccc(CO)cc2)cc1

>  <Reported Measurement>
-0.216

$$$$
>  <Molecule>
COC(=O)[C@@]1(Cc2ccc(F)cc2)[C@H]2c3cc(C(=O)N4CCCC4)n(Cc4ccccn4)c3C[C@H]2CN1C(=O)c1ccccc1

>  <Reported Measurement>
-1.65

$$$$
>  <Molecule>
[N-]=[N+]=Nc1ccccc1[C@@H]1OC(c2ccc(OCCCO)cc2)=N[C@]1(CCS(=O)(=O)c1ccccc1)C(=O)NCC(O)CO (some centres not stated)

>  <Reported Measurement>
-0.763

$$$$
>  <Molecule>
COc1ccc(C#Cc2ccc3c(c2)[C@]2(C(=O)N3)[C@H](C(=O)O)[C@H]3C(=O)O[C@H](c4ccccc4)[C@H](c4ccccc4)N3[C@@H]2c2ccccc2OCCO)cc1

>  <Reported Measurement>
-1.3

$$$$

Now consider the entry below.
Query: Look at this molecule and give its reported z-score. C=CCC(OC(C)=O)[C@@H]1[C@@H](N(Cc2cccc3ccccc23)C(=O)Cc2ccc(OC)cc2)c2cc(OCCCO)ccc2N1C(=O)Cc1ccc2ccccc2c1 (some centres not stated)
Response: 0.0724

----------
Below, each entry is listed with its recorded composite z-score.
# Tested on: wheat germ agglutinin (Triticum aestivum), Alexa647-labelled
# Assay Method Text: Alexa647-WGA lectin binding to printed small molecules – biochemical, small-molecule microarray, 635/667 nm fluorescence, artefact control for SMM control-protein annotation, profiling panel (AID 1140);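 note: score merges 667 nm feature emission with signal to noise over triplicate slides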
# Test Settings: WGA-A647 binding, 635 nm fluorescence, higher = more signal
No unit in the answer, please; the number alone is enough.

>  <Compound>
COCCOC(=O)N1C(=O)[C@@]2(c3cc(C#Cc4ccc(OC)cc4)ccc31)[C@H](c1ccc(OCCO)cc1)N1[C@H](c3ccccc3)[C@H](c3ccccc3)OC(=O)[C@H]1[C@@H]2C(=O)NC[C@H](O)c1ccccc1

>  <Reported Measurement>
1.05

$$$$
>  <Compound>
CCCC=C(CCC)[C@@H](NC(=O)OCC(C)C)c1ccc(C(=O)OC)cc1

>  <Reported Measurement>
0.0477

$$$$
>  <Compound>
COc1ccc(C(O)C2C=CC3C(=O)N(c4ccccc4)C(=O)C3N2Nc2ccc(C#N)cc2)cc1OCc1ccccc1 (configuration not stated)

>  <Reported Measurement>
1.15

$$$$

Query: # get_value(readout='composite z-score', item= CCOC(=O)C1=CC[C@@H](c2ccc(OC)cc2)N(S(=O)(=O)c2ccc(C)cc2)[C@H]1c1ccc(C)cc1 )
Response: 0.803

Query: Name the recorded composite z-score for CCCNC(=O)[C@@]1(Sc2ccc(C)cc2)CC(=O)N(Cc2ccccc2Cl)[C@@H]1c1ccc(CO)cc1I .
Response: 0.202

Query: I'd like to know its composite z-score. The compound in question is CCCCC(O)C1C=CC2C(=O)N(c3ccccc3)C(=O)C2N1Nc1ccc([N+](=O)[O-])cc1 (configuration not stated)
Response: 0.68

Query: Name the reported composite z-score value associated with the compound [N-]=[N+]=Nc1ccccc1[C@@H]1OC(c2ccc(OCCCO)cc2)=N[C@]1(CCS(=O)(=O)c1ccccc1)C(=O)NCC(O)CO (some centres not stated)
Response: 1.02
